- system_under_test: p56lck GST-SH2 (lck SH2 domain) (Homo sapiens)
- Construct: GST (N)
- assay_overview: Receptor-ligand equilibrium binding constants by surface plasmon resonance (biosensor), lck SH2 domain
- test_conditions: Table 1, compounds of formula (II)
- Protocol: The general methods for the determination of Receptor-Ligand Kinetic and Equilibrium Binding Constants using Surface Plasmon Resonance as applied to the lck SH2 Domain have been described in: M. M. Morelock, R. H. Ingraham, R. Betageri. General Biosensor Methods. […] The surface was regenerated by 4μL of 20 mM HCl followed by 4 μL of 150 mM Tris base. […] For the data analyzed for linear function the equilibrium plateau values without the sample refractive index subtracted were used. […]
pKd: −log10 of the molar value.
Catalogue of pKd readings, one per entry.
measure: pKd

* COc1ccc(Cn2ccc(C)c(NC(=O)[C@H](Cc3ccc(N(O)C(=O)C(=O)O)cc3)NC(=O)Cc3ccc(N(C)C)cc3)c2=O)cc1 | 5.37
* COc1ccc(Cn2ccc(C)c(NC(=O)[C@H](Cc3ccc(CC(=O)O)cc3)NC(=O)Cc3cccc(OC(C)(C)C)c3)c2=O)cc1 | 5.80
* CCCCCCn1ccc(C)c(NC(=O)C(Cc2ccc(C(C)(C)C(=O)O)cc2)NC(=O)Cc2cccs2)c1=O (stereo not shown) | 6.05
* Cc1ccn(Cc2ccc(C(=O)C(F)(F)F)cc2)c(=O)c1NC(=O)C(Cc1ccc(C(C)(C)C(=O)O)cc1)NC(=O)C(C)(C)c1ccc2ccccc2c1 (stereo not shown) | 4.39
* CCCCCCn1ccc(C)c(NC(=O)C(Cc2ccc(C(C)(C)C(=O)O)cc2)NC(=O)COc2ccccc2)c1=O (stereo not shown) | 5.72
* Cc1ccn(Cc2ccccc2)c(=O)c1NC(=O)C(Cc1ccc(C(C)(C)C(=O)O)cc1)NC(=O)Cc1cccc2ccccc12 (stereo not shown) | 5.05
* CCCCCn1ccc(C)c(NC(=O)C(Cc2ccc(C(C)(C)C(=O)O)cc2)NC(=O)Cc2cccc3ccccc23)c1=O (stereo not shown) | 5.51
* Cc1ccn(CCCCC(C)C)c(=O)c1NC(=O)C(Cc1ccc(C(C)(C)C(=O)O)cc1)NC(=O)OCc1ccccc1 (racemic) | 4.89
* COc1ccc(Cn2ccc(C)c(NC(=O)C(Cc3ccc(C(C)(C)C(=O)O)cc3)NC(=O)Cc3ccc(-c4ccccc4)cc3)c2=O)cc1 (stereo not shown) | 5.77
* COc1ccc(Cn2c(C)cc(C)c(NC(=O)[C@H](Cc3ccc(C(C)(C)C(=O)O)cc3)NC(=O)Cc3ccc4ccccc4c3)c2=O)cc1 | 5.66
* COc1ccc(Cn2ccc(C)c(NC(=O)[C@H](Cc3ccc(CC(=O)O)cc3)NC(=O)C(C)(C)c3ccccc3)c2=O)cc1 | 5.07
* CCC(C(=O)N[C@@H](Cc1ccc(C(C)(C)C(=O)O)cc1)C(=O)Nc1c(C)ccn(Cc2ccc(OC)cc2)c1=O)c1cccc2ccccc12 (stereo partly shown) | 6.17

----------
Catalogue of Kd readings, one per entry.
- system_under_test: p56lck GST-SH2 (lck SH2 domain) (Homo sapiens, UniProt P06239)
- Construct: GST (N)
- Sequence (P06239 127-224 limits assumed): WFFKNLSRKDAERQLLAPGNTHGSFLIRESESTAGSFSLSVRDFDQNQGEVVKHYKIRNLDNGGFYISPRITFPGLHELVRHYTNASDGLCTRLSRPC
- assay_overview: Receptor-ligand equilibrium binding constants by surface plasmon resonance (biosensor), lck SH2 domain
- test_conditions: Table 1, compounds of formula (II)
measure: Kd (µM)

* COc1ccc(Cn2ccc(C)c(NC(=O)[C@H](Cc3ccc(CC(=O)O)cc3)NC(=O)COc3cc4ccccc4cn3)c2=O)cc1 | 3.3
* Cc1ccn(CC2CCOC2)c(=O)c1NC(=O)C(Cc1ccc(C(C)(C)C(=O)O)cc1)NC(=O)C(C)(C)c1ccc2ccccc2c1 (stereo not drawn) | 23
